system: Saccharomyces cerevisiae; assay: protein stability index of tFT-peptide fusion (C-terminal peptide) (PSI (0-1 scale)); higher = more stable (slower turnover); details: genetic background: cdc53-1; temperature: 37 C;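 note: PSI is a weighted mean of sequencing reads over stability bins, variants kept only with over 10 reads, mCherry proximal and sfGFP distal, peptide attached via GGGS linker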
Could you please report measured protein stability index for the items listed next?
# output: bare number, no unit

Query `DAGSSYRFFRFI` yields protein stability index of 0.755

Query `IGSFFLFFLLIF` yields protein stability index of 0.291

Query `FGPVLLVSFLFS` yields protein stability index of 0.386

Query `AFLWSLFVFFRF` yields protein stability index of 0.183

Query `FFSRIIAILVLM` yields protein stability index of 0.453

Query `TNEWMDVKVFCY` yields protein stability index of 0.701

Query `LSPLSPLLFRLI` yields protein stability index of 0.509

Query `VVWCLLARVLLV` yields protein stability index of 0.4

Query `PTLPASLHSIYP` yields protein stability index of 0.72

Query `KIKKLKNRRKLV` yields protein stability index of 0.772

Query `NFSLFVHFLGLC` yields protein stability index of 0.703

Query `KSTLVRILVFHV` yields protein stability index of 0.647

Query `SILVSIFILAMQ` yields protein stability index of 0.311

Query `PHLDLYRLSALI` yields protein stability index of 0.751

Query `TSFSSGEALGVG` yields protein stability index of 0.503

Query `LCGGEWVVWVKG` yields protein stability index of 0.732

Query `RLFSPPVLATPS` yields protein stability index of 0.679

Query `FYLSFWFLIFFF` yields protein stability index of 0.251

Query `LLMWVLFDCHYS` yields protein stability index of 0.542

Query `VCWVYESWKCLA` yields protein stability index of 0.571

Query `GFLGMFFFWFAL` yields protein stability index of 0.648

Query `QCSPGLPHAQGL` yields protein stability index of 0.71

Query `GGGWGVFVVLWW` yields protein stability index of 0.325

Query `LFTRWSILFKLF` yields protein stability index of 0.357

Query `TLKRCFRWCRTT` yields protein stability index of 0.71

Query `IQICLNRLRLFH` yields protein stability index of 0.7

Query `RFICMMYLVYLC` yields protein stability index of 0.188

Query `LEGLLIRVYITF` yields protein stability index of 0.234

Query `SLRPFFPPLPRP` yields protein stability index of 0.729

Query `VSFLLYNFLSVF` yields protein stability index of 0.418

Query `SRARIRLPRILS` yields protein stability index of 0.71

Query `WVRIIIKLRASL` yields protein stability index of 0.448

Query `FSFVVRMFFRIL` yields protein stability index of 0.266

Query `RPPPTPRSVLLN` yields protein stability index of 0.715

Query `ALRLPPPPFSLY` yields protein stability index of 0.757

Query `LPPTPPLSPPPH` yields protein stability index of 0.688

Query `RFLPYLPTPLSP` yields protein stability index of 0.72

Query `VCVARICIWDFL` yields protein stability index of 0.589

Query `ALSGLARFIVCH` yields protein stability index of 0.358

Query `AQCRGGGLSGVG` yields protein stability index of 0.641

Query `VRLYLRSCVVES` yields protein stability index of 0.368
